Taken from the supplement of paper PMC9170038.

test system: MS2 coat protein; test: apparent KD of MS2 coat protein; higher = weaker reporter binding; details: Eterna round: R107; input ligand: theophylline 2 mM
Label Not met if apparent KD of MS2 coat protein falls below 100 nM; label Met in every other case.

## Task Given the entry AAACGUUGCUGCGAUACCAGACAUGAGGAUCACCCAUGUACCAAGGUAAAGAAAUAACGUGUCCCUUGGCAGCGCAGCAACGAAA [MAT - Exclusion Theophlline B - Mod of Eli - D12] , answer whether its apparent KD of MS2 coat protein meets or surpasses 100 nM.
## Result Met

## Task Given the entry UGUCAGCGAAAGUUGACAUGUUGAACCGGUCGAGGACCGGUACGGCCGCCACUCGAUCUCUCGUACAUGAGGAUCACCCAUGUCG [SS Tryp A #18] , answer whether its apparent KD of MS2 coat protein meets or surpasses 100 nM.
## Result Not met

## Task Given the entry AGUAGACACGCGGCCGCCACUUGAGGAUCACCCAGGUGGUGUGUACUUGAAACAAGUGCACAAUCAAGGACCGGGCGUGUCUACA [Omei Tryp B SS D v1] , answer whether its apparent KD of MS2 coat protein meets or surpasses 100 nM.
## Result Not met

## Task Given the entry GAUAUGUUUCGAAGGAGCGGCCCUUGAUCCUCAUGAGACAUGAGGAUCACCCAUGUCUCGGGCCAGGUAGGUCGCGAAAUAUAUC [Astros-omei-mod4] , answer whether its apparent KD of MS2 coat protein meets or surpasses 100 nM.
## Result Not met

## Task Given the entry CCGUCACAUGAGGAUCACCCAUGUGCGGAAGGAGCGGACGAUAGUCCAGGUAGGUCGCCGUAUAGCCAAUGACCAGCAGUGUCGG [XARG-A 22] , answer whether its apparent KD of MS2 coat protein meets or surpasses 100 nM.
## Result Not met

## Task Given the entry GGAUAGGACACGGCCGCCACUAGCUAGGAUACUAGCAACAUUUCCUCACUUGAGGAACACCCAAGUAGGACCGGGUGUCCUAUCG , answer whether its apparent KD of MS2 coat protein meets or surpasses 100 nM.
## Result Met
